- TEST METHOD NOTES: NCI Yeast Anticancer Drug Screen. Data for the mlh1 rad18 strain (AID 175)
- CONDITION DETAILS: S. cerevisiae mlh1 rad18 strain growth inhibition; at 50.0 µM; stronger effect = higher value
The panel holds about 79,000 compounds, 15% with a hit somewhere; the sample as a whole holds those more often.
Outcome label depends on growth inhibition relative to 20%: at/above gives TRUE, below gives FALSE.

Take a look at these entries with their results.
>>> assigned_label("CCOc1cccc(C=Nc2ccccc2SSc2ccccc2N=Cc2cccc(OCC)c2O)c1O")
"TRUE"
>>> assigned_label("CCOc1ccc(Nc2nc(C)c(C(=O)CC(=O)C(=O)Nc3ccc(C(C)C)cc3C(C)C)s2)cc1")
"FALSE"
>>> assigned_label("Cc1ccncc1.[O]=[Ge].[O]=[Ge].[O]=[Ge].[O]=[Ge].[O]=[Ge].[O]=[Ge][OH].[O]=[Ge][OH]")
"FALSE"

Textbook exercise: given the entry CN(C)/C=N/c1cc(=O)n(C)c(=O)n1C , state whether its growth inhibition is greater than or equal to 20%. FALSE

In plain terms: is recorded growth inhibition at least 20% for CCC(=O)N(C)C1(C#N)CCCCC1 ? TRUE

* * *

Entries annotated with measured growth inhibition
- TEST METHOD NOTES: NCI Yeast Anticancer Drug Screen. Data for the bub3 strain (AID 167)
- CONDITION DETAILS: S. cerevisiae bub3 mutant strain, at 50.0 µM, stronger effect = higher value
This is part of a sample that, as a whole, favours compounds with a hit. Of some 79,000 tested, about 15% had one in any assay.
Express it in %; write the number only.

Would you please look over these solved cases?
>>> reported_result("ClCC[n+]1ccc2ccccc2c1")
-9.05
>>> reported_result("CCCCS(=O)(=O)Cc1ccccc1")
0.3
>>> reported_result("COC(=O)C1CC23CCCC12CC3 (configuration not stated)")
8.05
>>> reported_result("O=c1oc2ccccc2c(O)c1C=NC(=S)c1ccncc1")
-11.3

Note growth inhibition for the compound shown: C#CC1(c2ccccc2)OCCO1 -13.2

Provide growth inhibition value for the following compound: Cc1csnn1 -1.6

Given c1ccc(-c2nc3ncncc3[nH]2)cc1 , respond with its growth inhibition. -3.45

Look up and report measured growth inhibition for this entry: Cc1c(CCCl)c(=O)n2c([nH]c3ccccc32)c1C#N -52.1

* * *

- TEST METHOD NOTES: NCI Yeast Anticancer Drug Screen. Data for the cln2 rad14 strain (AID 165);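 also: 0% = growth equal to vehicle treated cultures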
- CONDITION DETAILS: S. cerevisiae cln2 rad14 strain, at 50.0 µM
This is part of a sample that, as a whole, favours compounds with a hit. Of some 79,000 tested, about 15% had one in any assay. Activity calls are given as the source filed them. Cut-off read from the data, not from the text of the source: active = growth inhibition above about 70%; inactive = the rest.
# output must be one of active, inactive

Hi team, can someone confirm the assay call for COc1cc2c(c3c1c(=S)c1ccccc1n3C)C=CC(C)(C)O2 ? inactive

Call for entry CC(=O)Nc1ccc(S(=O)(=O)NC2(C)C(=O)N(C)C(=O)N(C)C2=O)cc1 : inactive

* * *

- TEST METHOD NOTES: NCI Yeast Anticancer Drug Screen. Data for the mec2-1 strain (AID 157)
- CONDITION DETAILS: S. cerevisiae mec2-1 strain, at 50.0 µM, stronger effect = higher value
Compounds without any hit were thinned out: in the full panel of roughly 79,000, 15% have a hit.
MEASUREMENT NAME: growth inhibition (%)
Express it in %; write the number only.

>>> reported_result("NC1=NS(=O)(=O)Nc2nc(-c3ccc([N+](=O)[O-])o3)[nH]c21")
-8.6
>>> reported_result("CN1C(C(=O)Nc2ccccn2)=C(O)c2ccccc2S1(=O)=O")
15.5
>>> reported_result("CC1CCP(=O)(c2ccccc2)CC1 (configuration not stated)")
-10.8
>>> reported_result("Cn1c(=O)c(Cl)c(N=[N+]=[N-])c2ccccc21")
37.4

Dear colleague, please send me the reported growth inhibition for N/C(=N\N=C\C1CC2C=CC1C2)NO (configuration not stated) when you can. -11.4

For the molecule CCC(Cl)COP(=O)(OCC(Cl)CC)O/C(C)=C(/C)P(=O)(OCC(Cl)CC)OCC(Cl)CC (configuration not stated) , report growth inhibition. 29.6

Specify reported growth inhibition for the molecule shown: CC(=O)/C(C(=N)C(=O)c1ccccc1)=C(\C)O 22.5

* * *

Readings of growth inhibition for the listed compounds
- TEST METHOD NOTES: NCI Yeast Anticancer Drug Screen. Data for the cln2 rad14 strain (AID 165);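 also: 0% = growth equal to vehicle treated cultures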
- CONDITION DETAILS: S. cerevisiae cln2 rad14 strain, at 50.0 µM, stronger effect = higher value
This is part of a sample that, as a whole, favours compounds with a hit. Of some 79,000 tested, about 15% had one in any assay.
Answer in %, number only, no unit symbol.

Consider the worked cases shown below.
>>> reported_result("O=C(Cn1c(=O)oc2ccc(C(=O)c3ccc(F)cc3)cc21)c1ccc([N+](=O)[O-])cc1")
-24.6
>>> reported_result("NC1=NS(=O)(=O)Nc2nc(-c3ccc(Cl)cc3)c(-c3ccc(Cl)cc3)nc21")
3.45
>>> reported_result("C[n+]1ccccc1/C=C/c1ccc([N+](=O)[O-])cc1")
-10.3
>>> reported_result("CC(=O)n1[nH]c(=O)c2ncccc2c1=O")
-6.6

Tell me measured growth inhibition for COc1ccc(NC(=O)Oc2ccc(C#N)cc2)cc1 please. 8.3

Consider the compound CCc1c(COC(=O)NC)c(COC(=O)NC)cc2c1[nH]c1ccccc12 and give its recorded growth inhibition. -16.4

# return recorded growth inhibition for input O=C1Oc2cc3c(c4cccc1c24)O[C@H](c1ccccc1)[C@@H](c1ccccc1)[C@@H]3c1ccc(Cl)cc1 -5.15

* * *

- TEST METHOD NOTES: NCI Yeast Anticancer Drug Screen. Data for the cln2 rad14 strain (AID 165);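 also: 0% = growth equal to vehicle treated cultures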
- CONDITION DETAILS: S. cerevisiae cln2 rad14 strain, at 50.0 µM, stronger effect = higher value
Compounds without any hit were thinned out: in the full panel of roughly 79,000, 15% have a hit.
MEASUREMENT NAME: growth inhibition (%)
The reply should contain only the number, in %.

>>> reported_result("CC(=O)NC(C=O)C(O)C(O)C(O)CO (stereo unspecified)")
-16.2
>>> reported_result("COC(=O)NC(CI)c1ccccc1 (stereo unspecified)")
8.85
>>> reported_result("CCN(CC)C(=O)C1CC=CCC1C(=O)O (stereo unspecified)")
-38.5
>>> reported_result("O=C(C1OC1c1ccccc1)C1OC1c1ccccc1 (stereo unspecified)")
-12.4
>>> reported_result("CC1COC(C(C)C)(C(C)C)O1 (stereo unspecified)")
-10

Provide only the value of recorded growth inhibition for COc1cc(/C=C(/C#N)C(N)=O)cc(OC)c1OC 12.3

Name the recorded growth inhibition of the item Cc1ccc(S(=O)(=O)c2c(N)c3nccn3c3nc4ccccc4nc23)cc1 in your answer. -38.8

Answer with reported growth inhibition of Nc1ncnc2c1ncn2C1CCN(CCO)C1=O (stereo unspecified) -17.4

# return recorded growth inhibition for entry ClC(c1ccccc1)c1cccc2ccccc12 (stereo unspecified) 21.5

Consider the molecule COC(=O)CC(c1ccc2c(c1)OCO2)N1CCCCC1 (stereo unspecified) and give its recorded growth inhibition. -22.9

* * *

- TEST METHOD NOTES: NCI Yeast Anticancer Drug Screen. Data for the bub3 strain (AID 167)
- CONDITION DETAILS: S. cerevisiae bub3 mutant strain, at 50.0 µM, stronger effect = higher value
This is part of a sample that, as a whole, favours compounds with a hit. Of some 79,000 tested, about 15% had one in any assay. Calls of active or inactive are those of the source. Rule as the data show it: active = growth inhibition above about 70%; inactive = the rest.
MEASUREMENT NAME: growth inhibition

Illustrative cases are given below, each with its answer.
>>> reported_result("O=P(NC1CCCCC1)(NC1CCCCC1)c1ccccc1")
"13.6% (inactive)"
>>> reported_result("CC(=O)Nc1ccc(/C=N/NC(N)=O)cc1")
"-0.7% (inactive)"
>>> reported_result("COc1cc(-c2cc(=O)c3cc4c(cc3[nH]2)OCO4)cc(OC)c1O")
"-12.3% (inactive)"

Fill in growth inhibition for record O=C/C(Cl)=C\Nc1ccc(C(=O)O)cc1 -0.4% (inactive)

Return growth inhibition for the following compound: COC(=O)CCSC(=S)NCc1ccccc1 -3.45% (inactive)

Supply recorded growth inhibition for Cc1ccc2c(c1)C(C)CC2(C)C (stereo not given) here. 8.95% (inactive)

Dear colleague, please send me the reported growth inhibition for COC(=O)N1C(c2ccccc2)C=CC(c2ccccc2)N1C(=O)OC (stereo not given) when you can. 17% (inactive)

Supply measured growth inhibition of O=c1cc(NC(c2ccccc2)c2ccccc2)[nH]c(=O)[nH]1 in your reply. 19.1% (inactive)

Write down growth inhibition measured for item CCOC(=O)Oc1ccc(Cl)cc1Cl -4.4% (inactive)

Determine its reported growth inhibition: CCCOC(=O)c1ccnc(C(=O)OCCC)c1 -9.9% (inactive)

Give the reported value of growth inhibition for this record: CCOC(=O)NC(Nc1ccc(S(=O)(=O)Nc2ncccn2)cc1)(C(=O)OCC)C(F)(F)F (stereo not given) 16.9% (inactive)

Hello, please tell me recorded growth inhibition for this one: O=C(O)C1(C(=O)O)Cc2ccccc2C1 9.85% (inactive)

Note down growth inhibition recorded for C=CCOC(=O)C(O)C=C (stereo not given) -1.6% (inactive)

Name the recorded growth inhibition of the compound listed here: Cc1ccc(C)c(CNC(=O)Nc2ccccc2Cl)c1 5.35% (inactive)

Quote growth inhibition reported for CCN(CC)CCSc1ccnc2cc(Cl)ccc12 please. 36% (inactive)
